testedOn: EhCS1 (Entamoeba histolytica, UniProt O15570)
Sequence (O15570 entry or part of it): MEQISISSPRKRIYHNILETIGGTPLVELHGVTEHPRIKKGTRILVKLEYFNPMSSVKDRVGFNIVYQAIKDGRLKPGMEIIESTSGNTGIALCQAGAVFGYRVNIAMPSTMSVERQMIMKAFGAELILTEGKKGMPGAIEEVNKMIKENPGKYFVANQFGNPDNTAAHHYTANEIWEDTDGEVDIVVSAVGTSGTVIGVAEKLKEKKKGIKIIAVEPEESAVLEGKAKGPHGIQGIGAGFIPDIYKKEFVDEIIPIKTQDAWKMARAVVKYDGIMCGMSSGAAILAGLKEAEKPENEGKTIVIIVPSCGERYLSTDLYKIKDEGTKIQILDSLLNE
protocolSummary: CS inhibitory activity, recombinant EhCS1 (acid-ninhydrin cysteine detection)
Assay type: biochemical
assayConditions: recombinant EhCS1, 15 min at 37°C, 2 mM O-acetyl-L-serine, 2 mM Na2S; read-out: IC50 CS1
Protocol: The E. coli BL21 (DE3) cell introduced pET-EhCS (CS1, CS3) construct was used for protein expression. Each EhCSs protein was expressed by 1 mM isopropyl β-D-thiogalactopyranoside induction for 12 h at 30°C. After induction, the E. coli cell was harvested and re-suspended in the lysis buffer (50 mM Tris-HCl, pH 8.0, and 300 mM NaCl) containing 0.5 mM phenylmethylsulfonyl fluoride. The suspension was sonicated and centrifuged at 24,000 ×g for 30 min at 4°C. […]
pIC50: −log10 of the molar value.
readout: pIC50

>>> df
                                   compound  readout  experimentalresult
0  COc1cc(C)c(-c2cc(OC)cc3c2C(=O)C2=C(C3=O)C(C)(C)c3cc(O)cc(O)c3C2=O)c(OC)c1 [Naphthacemycin A9]    pIC50                4.12

a. CC(=O)c1c(C)c(/C(O)=C2\COc3cc(O)c(O)c(C(=O)O)c3C2=O)cc2c(=O)c3c(C(=O)O)c(O)c(O)cc3oc12 [Xanthofulvin]
b. CCC[C@H]1O[C@H](CC(=O)O)CC2=C1C(=O)c1c(O)cccc1C2=O [Deoxyfrenolicin]
c. CCCCCCCCCc1cc(OC(=O)c2c(CCCCCCCCC)cc(O)cc2O[C@@H]2O[C@H](CO)[C@@H](O)[C@H](O)[C@H]2O)cc(O)c1C(=O)O [Exophillic acid]
Query :: Order the records by pIC50, with each subsequent value no larger than the one before. Rank them, then answer with their labels in that order.
Result :: a, c, b

* * *

Reported IC50 at 2 days by item:
protocolSummary: Cytotoxicity against MRC-5 cells (WST-8)
Assay type: cell-based
assayConditions: human fibroblast cells MRC-5, 2 days
# value in µM; strip the unit string

molecule	IC50 at 2 days / µM
CCC[C@H]1O[C@H](CC(=O)O)CC2=C1C(=O)c1c(O)cccc1C2=O	4.7
O=C1C=C2C(=CCOC2O)O1 (stereo not shown)	110
C[C@@H]1O[C@@H](O[C@@H]2C[C@H](c3ccc4c(c3O)C(=O)C3=C(C4=O)[C@@]4(O[C@H]5CC[C@H](O)[C@H](C)O5)C(=O)C[C@](C)(O)C[C@@]4(O)C=C3)O[C@H](C)[C@H]2O)CC[C@@H]1O	23
COc1cc(C)c(-c2cc(OC)cc3c2C(=O)C2=C(C3=O)C(C)(C)c3cc(O)cc(O)c3C2=O)c(OC)c1	16
C[C@@H]1O[C@@H](CC(=O)O)CC2=C1C(=O)c1c(O)cccc1C2=O	0.7

Query :: // query IC50 at 2 days value for entry CN(C)[C@@H]1C(O)=C(C(N)=O)C(=O)[C@@]2(O)C(O)=C3C(=O)c4c(O)cccc4[C@@](C)(O)[C@H]3C[C@@H]12 [Tetracycline, reference compound]
Result :: 430

* * *

testedOn: EhCS3 (Entamoeba histolytica, UniProt Q401L7)
Sequence (Q401L7 entry or part of it): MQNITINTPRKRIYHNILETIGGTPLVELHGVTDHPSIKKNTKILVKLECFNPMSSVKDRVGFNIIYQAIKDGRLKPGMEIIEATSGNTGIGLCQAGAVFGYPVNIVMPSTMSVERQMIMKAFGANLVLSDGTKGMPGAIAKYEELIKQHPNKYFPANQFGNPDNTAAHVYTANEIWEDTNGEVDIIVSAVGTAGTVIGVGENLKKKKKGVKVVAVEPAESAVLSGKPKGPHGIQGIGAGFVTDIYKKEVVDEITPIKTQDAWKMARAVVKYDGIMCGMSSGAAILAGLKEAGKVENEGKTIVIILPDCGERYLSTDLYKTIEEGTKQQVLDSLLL
protocolSummary: CS inhibitory activity, recombinant EhCS3 (acid-ninhydrin cysteine detection)
Format: biochemical
readout: IC50 (µM)
# value in µM; strip the unit string

compound	unitsOfMeasure	IC50
CN(C)[C@@H]1C(O)=C(C(N)=O)C(=O)[C@@]2(O)C(O)=C3C(=O)c4c(O)cccc4[C@@](C)(O)[C@H]3C[C@@H]12 [Tetracycline, reference compound]	µM	190
C[C@@]1(O)[C@H](O)c2c(c3c(=O)c4cccc(O)c4c(=O)c=3c2=[N+]=[N-])[C@H](O)[C@H]1O [Deacetylkinamycin C]	µM	22

With those in mind, consider the next compound.
Query :: // query IC50 value for entry O=C1C=C2C(=CCOC2O)O1 (stereo not drawn) [Patulin]
Result :: 470

* * *

testedOn: EhCS3 (Entamoeba histolytica, UniProt Q401L7)
protocolSummary: CS inhibitory activity, recombinant EhCS3 (acid-ninhydrin cysteine detection)
Assay type: biochemical
assayConditions: recombinant EhCS3, 15 min at 37°C, 2 mM O-acetyl-L-serine, 2 mM Na2S; read-out: IC50 CS3
Description: The E. coli BL21 (DE3) cell introduced pET-EhCS (CS1, CS3) construct was used for protein expression. Each EhCSs protein was expressed by 1 mM isopropyl β-D-thiogalactopyranoside induction for 12 h at 30°C. After induction, the E. coli cell was harvested and re-suspended in the lysis buffer (50 mM Tris-HCl, pH 8.0, and 300 mM NaCl) containing 0.5 mM phenylmethylsulfonyl fluoride. The suspension was sonicated and centrifuged at 24,000 ×g for 30 min at 4°C. […]
pIC50: −log10 of the molar value.
readout: pIC50

testSmiles	testedOn	pIC50
C[C@@H]1O[C@@H](CC(=O)O)CC2=C1C(=O)c1c(O)cccc1C2=O	EhCS3 (Entamoeba histolytica, UniProt Q401L7)	4.19

I. C[C@@H]1O[C@@H](O[C@@H]2C[C@H](c3ccc4c(c3O)C(=O)C3=C(C4=O)[C@@]4(O[C@H]5CC[C@H](O)[C@H](C)O5)C(=O)C[C@](C)(O)C[C@@]4(O)C=C3)O[C@H](C)[C@H]2O)CC[C@@H]1O
II. CC(=O)c1c(C)c(/C(O)=C2\COc3cc(O)c(O)c(C(=O)O)c3C2=O)cc2c(=O)c3c(C(=O)O)c(O)c(O)cc3oc12
Query :: Could you tell me which of I and II has the lower pIC50 reading? The response must carry the label of the picked entry.
Result :: II
(II: 3.96, I: 6.19)
